- experimentalProtocol: Selectivity index, ratio of IC50 for p38 alpha (unknown origin) to IC50 for JNK3 (unknown origin)
parameter: Ratio IC50
// no unit string in output, number only

Find the recorded Ratio IC50 belonging to `O=C(NC1COC1)c1cc(-n2ncc3cc(Nc4ccccc4Cl)ncc32)cs1` and report it.
17

Find the recorded Ratio IC50 belonging to `CC(=O)N1CC[C@H](NC(=O)c2cc(-n3ncc4cc(Nc5ccccc5Cl)c(F)cc43)cs2)C1` and report it.
16

Find the recorded Ratio IC50 belonging to `CC(C)N1CC[C@@H](NC(=O)c2cc(-n3ncc4cc(Nc5ccccc5Cl)ccc43)cs2)C1` and report it.
10

Find the recorded Ratio IC50 belonging to `O=C(NC1CCOCC1)c1cc(-n2ncc3cc(Nc4ccccc4Cl)c(F)cc32)cs1` and report it.
24

Find the recorded Ratio IC50 belonging to `O=C(NC1CC1)c1cc(-n2ncc3cc(Nc4ccccc4Cl)c(F)cc32)cs1` and report it.
14

***
Find the recorded Ratio IC50 belonging to `Cc1nc2c(cnn2-c2csc(C(=O)NC3COC3)c2)cc1Nc1cccc(F)c1Cl` and report it.
8

Find the recorded Ratio IC50 belonging to `CNC(=O)c1cc(-n2ncc3cc(Nc4ccccc4Cl)c(F)cc32)cs1` and report it.
20

Find the recorded Ratio IC50 belonging to `CNC(=O)c1cc(-n2ncc3cc(Nc4ccccc4Cl)c(OC)cc32)cs1` and report it.
8

Find the recorded Ratio IC50 belonging to `COCCNC(=O)c1cc(-n2ncc3cc(Nc4ccccc4Cl)c(F)cc32)cs1` and report it.
14

Find the recorded Ratio IC50 belonging to `O=C(NC1COC1)c1cc(-n2ncc3cc(Nc4ccccc4Cl)cnc32)cs1` and report it.
43

Find the recorded Ratio IC50 belonging to `CNC(=O)c1cc(-n2ncc3cc(Nc4c(F)cccc4Cl)c(F)cc32)cs1` and report it.
12

Find the recorded Ratio IC50 belonging to `CNC(=O)c1cc(-n2ncc3cc(Nc4c(F)cccc4Cl)ncc32)cs1` and report it.
28

Find the recorded Ratio IC50 belonging to `Cc1nc2c(cnn2-c2csc(C(=O)NC3COC3)c2)cc1Nc1ccc(F)cc1Cl` and report it.
6

###

Catalogue of half-life values
- experimentalProtocol: Stability in human liver microsome assessed as half life
- Assay type: ADME
- measurementSetup: liver microsomes
Give just the number in min; leave the unit off.

Recorded half-life, per entry:
Find the recorded half-life belonging to `O=C(NC1COC1)c1cc(-n2ncc3cc(Nc4ccccc4Cl)c(F)cc32)cs1` and report it.
92

Find the recorded half-life belonging to `CNC(=O)c1cc(-n2ncc3cc(Nc4c(F)cccc4Cl)cnc32)cs1` and report it.
30

Find the recorded half-life belonging to `Cc1nc2c(cnn2-c2csc(C(=O)NC3COC3)c2)cc1Nc1c(F)cccc1Cl` and report it.
92

Find the recorded half-life belonging to `CNC(=O)c1cc(-n2ncc3cc(Nc4ccccc4Cl)cnc32)cs1` and report it.
15

Find the recorded half-life belonging to `CNC(=O)c1cc(-n2ncc3cc(Nc4c(F)cccc4Cl)c(C)nc32)cs1` and report it.
26

Find the recorded half-life belonging to `CNC(=O)c1cc(-n2ncc3cc(Oc4ccccc4Cl)ccc32)cs1` and report it.
72

***
Find the recorded half-life belonging to `O=C(NC1COC1)c1cc(-n2ncc3cc(Nc4ccccc4Cl)cnc32)cs1` and report it.
21

Find the recorded half-life belonging to `CNC(=O)c1cc(-n2ncc3cc(Nc4ccccc4Cl)c(F)cc32)cs1` and report it.
37

Data credit: ChEMBL document CHEMBL4837263
